# SUBJECT OF TEST: T1, KRAS G12V protein (UniProt P01116-2 1-188, limits assumed)
# T1 construct: also called mutant KRAS G12V; mutant Kirsten-RAS
# ASSAY METHOD TEXT: ITC, GJ101 (1.0 mM) injected into KRAS G12V (0.1 mM), 25 °C
MEASURED ENDPOINT: pKd
Numbers only, as −log10 of the molar value.

According to the records, this binder LYDVA (Synthesised by solid phase peptide synthesis and purified by RP-HPLC to 95% or more; said to consist of 5 amino acids and to be derived from H-REV107; also called mutant KRAS-targeting anticancer peptide) [anticancer peptide GJ101] displays pKd of 4.92
